FYI, the data here is from ChEMBL document CHEMBL1123086.

Test system: Friend leukemia cell line
Assay: Inhibitory activity against cellular replication in Friend erythroleukemia cells as growth inhibition.
Assay type: functional
Conditions: Mus musculus, read-out: ID50 (the source's name)
Quantity Name: IC50 (mM)

These solved cases illustrate the format of a correct answer.
Nc1nc(O)c2nc(S)n([C@@H]3O[C@H](CO)[C@@H](O)[C@H]3O)c2n1
3.5
[N-]=[N+]=Nc1nc2c(O)nc(N)nc2n1C1O[C@H](CO)[C@@H](O)[C@H]1O (some centres undefined)
3.6
CS(=O)(=O)c1nc2c(O)nc(N)nc2n1C1O[C@H](CO)[C@@H](O)[C@H]1O (some centres undefined)
5.4

1: Nc1nc2c(nc(Br)n2[C@@H]2O[C@H](CO)[C@@H](O)[C@H]2O)c(=O)[nH]1
2: Nc1nc(O)c2ncn([C@H]3C[C@H](O)[C@@H](CO)O3)c2n1
3: Nc1nc2c(ncn2[C@@H]2O[C@H](CO)[C@@H](O)[C@H]2O)c(=O)[nH]1
Request: Please list these in order of increasing IC50. Thank you! The response must list the labels following the requested ordering.
Result: 2, 3, 1

----------
System: Friend leukemia cell line
Test: Inhibitory activity against cellular replication in Friend erythroleukemia cells as growth inhibition.
Assay type: functional
Conditions: Mus musculus, read-out: ID50 (the source's name)
Quantity Name: IC50 (mM)

Nc1nc2c([nH]c(=O)n2[C@H]2C[C@H](O)[C@@H](CO)O2)c(=O)[nH]1
0.39

A: Nc1nc(O)c2nc(N)n([C@@H]3O[C@H](CO)[C@@H](O)[C@H]3O)c2n1
B: CNc1nc2c(=O)[nH]c(N)nc2n1[C@@H]1O[C@H](CO)[C@@H](O)[C@H]1O
Request: Hello, I am sorting some records. Could you say if A or B has the smaller IC50 value? Label of pick, please.
Result: A
(A: 1.7 mM, B: 2.9 mM)

----------
Test system: Friend leukemia cell line
Experiment: Inhibitory activity against cellular differentiation in Friend erythroleukemia cells as percentage of benzidine - positive cells.
Format: functional, Mus musculus
Quantity Name: Benzidine positive cells (%)
The figure you give is taken to be in %; do not add the unit.

Nc1nc(O)c2nc(N)n([C@@H]3O[C@H](CO)[C@@H](O)[C@H]3O)c2n1
34
COc1nc2c(O)nc(N)nc2n1[C@H]1C[C@H](O)[C@@H](CO)O1
22
Nc1nc2c([nH]c(=O)n2[C@H]2C[C@H](O)[C@@H](CO)O2)c(=O)[nH]1
62

Request: Write Benzidine positive cells of Nc1nc(O)c2nc(NO)n(C3O[C@H](CO)[C@@H](O)[C@H]3O)c2n1 (stereo not given in full) ; system used: Friend leukemia cell line
Result: 7

Request: Fill: Benzidine positive cells (Friend leukemia cell line) for this compound CNc1nc2c(=O)[nH]c(N)nc2n1[C@@H]1O[C@H](CO)[C@@H](O)[C@H]1O
Result: 42

Request: Give the observed Benzidine positive cells of Nc1nc(O)c2nc(OCc3ccccc3)n(C3O[C@H](CO)[C@@H](O)[C@H]3O)c2n1 (stereo not given in full) for Friend leukemia cell line.
Result: 4

Request: Please report Benzidine positive cells with Friend leukemia cell line for item CS(=O)(=O)c1nc2c(O)nc(N)nc2n1C1O[C@H](CO)[C@@H](O)[C@H]1O (stereo not given in full) .
Result: 30

Request: // output Benzidine positive cells; input COc1nc2c(O)nc(N)nc2n1C1O[C@H](CO)[C@@H](O)[C@H]1O (stereo not given in full) ; system Friend leukemia cell line
Result: 7

Request: Enter Benzidine positive cells (test system Friend leukemia cell line) for Nc1nc(O)c2nc(Br)n([C@H]3C[C@H](O)[C@@H](CO)O3)c2n1
Result: 20

Request: State, for Friend leukemia cell line, measured Benzidine positive cells of the compound listed here: Nc1nc(O)c2nc(OCc3ccccc3)n([C@H]3C[C@H](O)[C@@H](CO)O3)c2n1
Result: 7
